System: PC-3 prostate
test protocol: NCI tumour cell line growth inhibition, 48 h
Each entry below carries its reported TGI.
Give a bare numeral; the unit µM is implied.

Known results for compounds:
| chem smiles | TGI [µM] |
| --- | --- |
| COC(=O)c1ccc(NCC2=CC(=O)c3ccccc3C2=O)cc1 | 27.8 |
| Cc1nn2c(/C=C3/C(=O)Nc4ccccc43)c(-c3ccc(Cl)cc3)nc2s1 | 32.2 |
| C=C(CN1CCN(c2ccccc2F)CC1)c1ccc(C(=O)Nc2ccccc2N)cc1 | 4.01 |

Now take the following compound into account.
Please look up its TGI: C/C(=N/NC(=S)N(Cc1ccccn1)Cc1ccccn1)c1cnccn1 26
